Would you kindly list lowest phenotypically active concentration for each of these compounds?
# Test system: HepG2-CANX-COX4
# TEST_SUMMARY: lowest phenotypically active concentration; higher = less potent
# CONDITION_PARAMETERS: treatment time: 24 h
One number for each entry, in µM.

Check out these entries, answers already filled in.
COMPOUND: COc1cc2c(c(OC)c1OC)-c1ccc(O)c(=O)cc1[C@@H](N)CC2
TEST_RESULT: 9
--
COMPOUND: COc1ccc(CCN2CCC(Nc3nc4ccccc4n3Cc3ccc(F)cc3)CC2)cc1
TEST_RESULT: 3
--
COMPOUND: C[C@H](CCC(=O)O)C[C@H](C)C[C@H](C)C(=O)/C=C(\O)[C@H](C)C[C@H](C)C/C=C/[C@@H](C)[C@@H](O)[C@@H](C)[C@@H](O)C[C@@H]1CC[C@@](C)([C@H]2CC[C@@](C)([C@@H](C)O)O2)O1 [Ionomycin free acid]
TEST_RESULT: 9

Proceed to the following item.
// recorded lowest phenotypically active concentration for C[C@@]12C(=O)OC(=O)[C@]1(C)[C@H]1CC[C@@H]2O1 : 9

====

# Tested on: HepG2-ACTB-RAB5A
# TEST_SUMMARY: phenotypically active (imaging signature differs from DMSO and reproducible) at any of 0.3-9 uM (binary (1 = active, 0 = inactive)); higher = active
# CONDITION_PARAMETERS: treatment time: 24 h
Would you kindly list phenotypically active for each of these molecules?
One number for each entry.

Check out these entries, answers already filled in.
MOLECULE: COc1ccc(C[C@H]2NC[C@H](O)[C@H]2OC(C)=O)cc1
phenotypically active: 1
//
MOLECULE: CCCC(C)C1(CC)C(=O)N=C(S)NC1=O (stereo not drawn)
phenotypically active: 0
//
MOLECULE: O=P1(NCCCl)OCCCN1CCCl (stereo not drawn) [ifosfamide]
phenotypically active: 0
//
MOLECULE: O=P1(N(CCCl)CCCl)NCCCO1 (stereo not drawn) [cyclophosphamide]
phenotypically active: 0
//
MOLECULE: CC[C@]12C=CCN3CC[C@]4(C(=C(C(=O)OC)C1)Nc1ccccc14)[C@@H]32 [Tabersonine dichlorhydrate]
phenotypically active: 1
//
MOLECULE: CCN(CC)CCN1C(=O)CN=C(c2ccccc2F)c2cc(Cl)ccc21
phenotypically active: 0
//
MOLECULE: C[C@H](CCC(=O)O)C[C@H](C)C[C@H](C)C(=O)/C=C(\O)[C@H](C)C[C@H](C)C/C=C/[C@@H](C)[C@@H](O)[C@@H](C)[C@@H](O)C[C@@H]1CC[C@@](C)([C@H]2CC[C@@](C)([C@@H](C)O)O2)O1 [Ionomycin free acid]
phenotypically active: 0

Proceed to the following item.
// recorded phenotypically active for CC1=C2[C@H]3OC(=O)[C@@H](C)[C@@H]3CC[C@@]2(C)C=CC1=O : 0

====

# System: WPMY1-ACTB-RAB5A
# TEST_SUMMARY: phenotypically active (imaging signature differs from DMSO and reproducible) at any of 0.3-9 uM (binary (1 = active, 0 = inactive)); higher = active
# CONDITION_PARAMETERS: treatment time: 24 h
Where a name gives a salt, the structure may show the parent alone.
READOUT: phenotypically active

COMPOUND: CCCCCCCCCC(=O)O[C@H]1CC[C@H]2[C@@H]3CCC4=CC(=O)CC[C@@H]4[C@H]3CC[C@]12C [nandrolone-decanoate]
phenotypically active: 0 (inactive)

Record phenotypically active for all entries; do not skip any.
1. O=C1NC(=O)c2c1c1c3ccccc3n3c1c1c2c2ccccc2n1C1CCC3O1
2. CCN1C[C@]2(COC)CC[C@H](OC)[C@]34[C@@H]5C[C@H]6[C@H](OC)[C@@H]5[C@@]5(C[C@@H]6OC)OCO[C@@]5([C@H]13)[C@@H](O)[C@H]24
3. N[C@@H]1C[C@H]1c1cc(F)cc(F)c1OCc1ccccc1
4. CC(C)[N+](C)(CCC(C(N)=O)(c1ccccc1)c1ccccc1)C(C)C [isopropamide-iodide]

1. 1 (active)
2. 0 (inactive)
3. 1 (active)
4. 0 (inactive)

Record phenotypically active for all entries; do not skip any.
1. C[C@]12CC[C@H]3[C@@H](CC[C@]4(O)C[C@@H](O)CC[C@]34C=O)[C@@]1(O)CC[C@@H]2C1=CC(=O)OC1
2. CC[C@@H](C(=O)[C@@H](C)[C@@H](O)[C@H](C)[C@@H]1O[C@@H]([C@@H](CC)C(=O)O)CC[C@@H]1C)[C@H]1O[C@]2(C=C[C@@H](O)[C@]3(CC[C@@](C)([C@H]4CC[C@](O)(CC)[C@H](C)O4)O3)O2)[C@H](C)C[C@@H]1C [Salinomycin Sodium]

1 (active)
1 (active)

Record phenotypically active for all entries; do not skip any.
1. O=C(NCCN1CCC2(CC1)C(=O)NCN2c1cccc(F)c1)c1ccc(F)c(F)c1 [ML 298 hydrochloride]
2. CCOc1cc(C=O)ccc1O

1. 1 (active)
2. 0 (inactive)

Record phenotypically active for all entries; do not skip any.
1. O=C1C[C@@H]2OCC=C3CN4CC[C@]56c7ccccc7N1[C@H]5[C@H]2[C@H]3C[C@H]46
2. CC[N+](CC)(CCCNC1=CC(=O)C(NCCC[N+](CC)(CC)Cc2ccccc2)=CC1=O)Cc1ccccc1 [Benzoquinonium dibromide]
3. O=C1C[C@@H]2OCC=C3C[N+]4([O-])CC[C@]56c7ccccc7N1[C@H]5[C@H]2[C@H]3C[C@@H]64 (some centres undefined)
4. C[C@@H](N)[C@@H](O)c1ccccc1
5. CO[C@H]1C=C2CCN(C)[C@H]2[C@@H]2c3cc4c(cc3[C@@H](O)O[C@@H]21)OCO4
6. NC(=O)CS(=O)C(c1ccccc1)c1ccccc1 (centres undefined)

["0 (inactive)", "0 (inactive)", "0 (inactive)", "0 (inactive)", "0 (inactive)", "0 (inactive)"]

====

# Tested on: WPMY1-ACTB-RAB5A
# TEST_SUMMARY: phenotypically active (imaging signature differs from DMSO and reproducible) at any of 0.3-9 uM (binary (1 = active, 0 = inactive)); higher = active
# CONDITION_PARAMETERS: treatment time: 24 h
Would you kindly list phenotypically active for each of these compounds?
One number for each entry.

Check out these entries, answers already filled in.
COMPOUND: COc1ccc2c(c1OC)C(=O)O[C@@H]2[C@H]1c2cc3c(cc2CCN1C)OCO3 [Hydrastine]
READOUT: phenotypically active
TEST_RESULT: 0
//
COMPOUND: C/C=C1\C[C@@H](C)[C@](O)(CO)C(=O)OCC2=CCN3CC[C@@H](OC1=O)[C@@H]23
READOUT: phenotypically active
TEST_RESULT: 0
//
COMPOUND: CO[C@H](C)[C@](O)(C(=O)OCC1=CCN2CC[C@H](O)[C@@H]12)C(C)C
READOUT: phenotypically active
TEST_RESULT: 0

Record phenotypically active for all entries; do not skip any.
1. C[C@H]1O[C@@H](O[C@H]2[C@@H](O)C[C@H](O[C@H]3[C@@H](O)C[C@H](O[C@H]4CC[C@@]5(C)[C@H](CC[C@@H]6[C@@H]5CC[C@]5(C)[C@@H](C7=CC(=O)OC7)[C@@H](O)C[C@]65O)C4)O[C@@H]3C)O[C@@H]2C)C[C@H](O)[C@@H]1O
2. Cc1nnc2n1-c1ccc(Cl)cc1C(c1ccccc1)=NC2
3. C[C@@H]1CN([C@H]2CC[C@](C#N)(c3ccc(F)cc3)CC2)CC[C@]1(C(=O)O)c1ccccc1
4. CCC1(CC)C(=O)NC(=O)N(C)C1=O
5. C[C@H](CCC(=O)O)C[C@H](C)C[C@H](C)C(=O)/C=C(\O)[C@H](C)C[C@H](C)C/C=C/[C@@H](C)[C@@H](O)[C@@H](C)[C@@H](O)C[C@@H]1CC[C@@](C)([C@H]2CC[C@@](C)([C@@H](C)O)O2)O1 [Ionomycin free acid]
6. O=c1cccc2n1C[C@H]1CNC[C@H]2C1 [Cytisine nitrate hydrate]
7. COc1c2c(cc3c1OCO3)CC[N+](C)=C2 [Cotarnine chloride]
8. CC(=O)O[C@H]1C[C@@H]2CC[C@@H]3[C@H](CC[C@@]4(C)[C@H]3C[C@H]([N+]3(C)CCCCC3)[C@@H]4OC(C)=O)[C@@]2(C)C[C@@H]1[N+]1(C)CCCCC1

1: 1; 2: 0; 3: 0; 4: 0; 5: 1; 6: 0; 7: 0; 8: 0

Record phenotypically active for all entries; do not skip any.
1. Cc1sc2c(c1C)C(c1ccc(Cl)cc1)=N[C@@H](CC(=O)OC(C)(C)C)c1nnc(C)n1-2
2. CC1=CC(=O)C2=C(C)C[C@H](O)[C@@H]3[C@H](OC(=O)[C@H]3C)[C@@H]12 [Austricine hydrate]
3. COc1ccc(C[C@H]2NC[C@H](O)[C@H]2OC(C)=O)cc1

1
0
1
